Molecular target: hM1 WT mAChR (M1 muscarinic acetylcholine receptor) (Homo sapiens)
Test: IP1 accumulation
Give pEC50 for every item shown.
A value of pEC50 is the negative decimal logarithm of a concentration given in moles per litre.

Prompt: Tell me pEC50 reported for `O=C(N[C@H]1CCCC[C@@H]1O)[C@H]1CN(Cc2ccc(-n3cccn3)cc2)c2ccccc2O1`
Completion: 6.43

Prompt: Tell me pEC50 reported for `Cc1cnc(C(=O)N[C@H]2CCOC[C@@H]2O)cc1Cc1ccc(-c2cscn2)cc1`
Completion: 7.89

* * *

Target: hM1 WT mAChR (M1 muscarinic acetylcholine receptor) (Homo sapiens, UniProt P11229, A196G/Y106C)
Sequence (P11229 1-460 Y106C/A196G): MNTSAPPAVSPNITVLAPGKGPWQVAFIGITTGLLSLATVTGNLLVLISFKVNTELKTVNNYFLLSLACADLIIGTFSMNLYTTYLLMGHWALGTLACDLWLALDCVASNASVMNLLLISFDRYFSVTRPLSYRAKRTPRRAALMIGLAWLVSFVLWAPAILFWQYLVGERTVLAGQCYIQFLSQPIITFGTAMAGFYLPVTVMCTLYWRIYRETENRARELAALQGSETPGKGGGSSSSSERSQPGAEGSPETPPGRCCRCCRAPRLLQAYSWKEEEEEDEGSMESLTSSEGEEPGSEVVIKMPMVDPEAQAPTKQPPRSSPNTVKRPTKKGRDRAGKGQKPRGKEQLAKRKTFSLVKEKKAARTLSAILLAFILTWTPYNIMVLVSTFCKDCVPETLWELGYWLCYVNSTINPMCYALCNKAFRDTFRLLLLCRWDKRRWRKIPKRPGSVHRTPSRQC
Test: cell-based
Type: cell-based
TEST READOUT: pKi
A value of pKi is the negative decimal logarithm of a concentration given in moles per litre.

Prompt: Tell me pKi reported for `C[N+]1([O-])CCN(C2=Nc3cc(Cl)ccc3Nc3ccccc32)CC1`
Completion: 6.90

Origin of the recorded values: paper PMC7616161
